- targetOrSystem: T1, human CD112R on CHO-CD112R cells (human, UniProt Q6DKI7 41-326)
- T1 construct: whole, on cells; also called hCD112R; PVRIG
- T1 sequence (looked up): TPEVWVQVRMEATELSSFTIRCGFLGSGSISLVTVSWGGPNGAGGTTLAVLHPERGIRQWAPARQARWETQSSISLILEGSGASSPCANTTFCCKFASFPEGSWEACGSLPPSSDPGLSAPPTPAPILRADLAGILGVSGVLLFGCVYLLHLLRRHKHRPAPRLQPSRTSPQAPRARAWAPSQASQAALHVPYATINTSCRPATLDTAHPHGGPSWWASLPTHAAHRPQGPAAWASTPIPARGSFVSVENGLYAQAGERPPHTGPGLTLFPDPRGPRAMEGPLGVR
- assayProcedure: FACS on CHO-CD112R cells
measuredProperty: EC50 (µg/mL)
Write the number in µg/mL without appending the unit.

Inquiry: Specify measured EC50 for Chi-47 (antibody, V domains shown, chimeric) VH: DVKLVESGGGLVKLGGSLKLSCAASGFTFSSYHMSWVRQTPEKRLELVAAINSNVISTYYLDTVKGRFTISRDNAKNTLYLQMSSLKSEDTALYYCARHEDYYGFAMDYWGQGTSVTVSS VL: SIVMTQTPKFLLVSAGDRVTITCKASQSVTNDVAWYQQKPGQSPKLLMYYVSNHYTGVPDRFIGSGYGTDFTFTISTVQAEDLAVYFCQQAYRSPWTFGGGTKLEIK .
Reply text: 0.28

Measured values drawn from patent US20240309087A1 for this set.
